Every entry's value here was drawn from the supplement of paper PMC8728848.

biological target: GalNAc(b1-3)GalNAc; assay: glycan array binding signal (z-score within array); higher = stronger binding; settings: glycan notation: IUPAC condensed, linker removed
The full list was thinned out, with the strongest signals kept by preference.
measured-quantity: glycan array binding signal (z-score)
Would you mind answering with just the numeric figure?

I would be grateful if you could share the reported glycan array binding signal (z-score) for FimD (Bordetella pertussis) (protein) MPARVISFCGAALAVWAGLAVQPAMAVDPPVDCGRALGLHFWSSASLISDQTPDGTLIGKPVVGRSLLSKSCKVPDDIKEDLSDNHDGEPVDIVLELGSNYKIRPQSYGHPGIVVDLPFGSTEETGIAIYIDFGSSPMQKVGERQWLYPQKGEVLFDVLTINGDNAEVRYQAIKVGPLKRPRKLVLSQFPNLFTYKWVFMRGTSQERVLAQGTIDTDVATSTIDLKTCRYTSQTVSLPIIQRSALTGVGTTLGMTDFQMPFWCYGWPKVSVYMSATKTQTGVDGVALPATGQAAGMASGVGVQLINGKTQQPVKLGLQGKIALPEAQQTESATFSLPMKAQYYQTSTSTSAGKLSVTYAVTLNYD .
-0.207
